Biological target: FPRL-1 (Homo sapiens)
Test: compound-induced calcium activity on FLIPR Tetra in CHO-Gα16 cells stably expressing FPRL1
Conditions: tested 0.61 to 10,000 nM, read-out: FPRL-1 Ga16-CHO EC50
pEC50: −log10 of the molar value.
Measured Quantity: pEC50

[[record]]
molecule = "CC(C)CC(C)(NC(=O)Nc1ccc(Br)cc1)C(=O)NCC(=O)O (centres unmarked)"
data_value = 7.66


P. CC[C@H](C)[C@H](NC(=O)Nc1ccc(Br)cc1)C(=O)NCCO
Q. O=C(O)CNC(=O)C(Cc1c[nH]c2ccccc12)NC(=O)Nc1ccc(Br)cc1 (centres unmarked)
R. CCC[C@H](NC(=O)[C@H](CC(C)C)NC(=O)Nc1ccc(Br)cc1)C(N)=O
S. CC(C)C[C@H](NC(=O)Nc1ccc(Br)cc1)C(=O)N[C@@H](C)C(=O)O
## Input Ordering: ascending pEC50. Hello, could you send the labels back in the order asked? Thank you.
## Output P, S, R, Q
(P: 7.62, S: 7.96, R: 8.19, Q: 9.14)

====

Target: FPRL-1 (Homo sapiens, UniProt P25090)
Construct: expressed in transfected cells
Experiment: compound-induced calcium activity on FLIPR Tetra in CHO-Gα16 cells stably expressing FPRL1
Type: cell-based
Conditions: relative efficacy
Method: CHO-Gα16 cells stably expressing FPRL1 were cultured in (F12, 10% FBS, 1% PSA, 400 μg/ml geneticin and 50 μg/ml hygromycin) and HEK-Gqi5 cells stable expressing FPR1 were cultured in (DMEM high glucose, 10% FBS, 1% PSA, 400 μg/ml geneticin and 50 μg/ml hygromycin). In general, the day before the experiment, 18,000 cells/well were plated in a 384-well clear bottom poly-d-lysine coated plate. […] Results are expressed as EC50 (nM) and efficacy values.
Measured Quantity: FPRL-1 Ga16-CHO (Rel. eff.)

Sample answers from the record:
[[record]]
item_smiles = "CC(C)C[C@H](NC(=O)Nc1ccc(Br)cc1)C(=O)N[C@@H](C)C(=O)OC(C)(C)C"
measured_quantity = "FPRL-1 Ga16-CHO (Rel. eff.)"
data_value = "(0.96)"

[[record]]
item_smiles = "CC(=O)CNC(=O)[C@H](Cc1ccccc1)NC(=O)Nc1ccc(Br)cc1"
measured_quantity = "FPRL-1 Ga16-CHO (Rel. eff.)"
data_value = "(0.96)"

[[record]]
item_smiles = "CC[C@H](C)[C@H](NC(=O)Nc1ccc(Br)cc1F)C(=O)NCC(=O)O"
measured_quantity = "FPRL-1 Ga16-CHO (Rel. eff.)"
data_value = "(0.95)"

[[record]]
item_smiles = "CCC[C@H](NC(=O)Nc1ccc(Br)cc1F)C(=O)NCCO"
measured_quantity = "FPRL-1 Ga16-CHO (Rel. eff.)"
data_value = "(0.87)"

[[record]]
item_smiles = "CC(C)C[C@@H](NC(=O)Nc1ccc(Br)cc1F)C(=O)NCC(=O)O"
measured_quantity = "FPRL-1 Ga16-CHO (Rel. eff.)"
data_value = "(0.87)"


The reported FPRL-1 Ga16-CHO (Rel. eff.) of the compound CC(C)C[C@H](NC(=O)Nc1ccc(Br)cc1F)C(=O)N[C@@H](C)C(=O)O was (0.95)

====

Biological target: FPRL-1 (Homo sapiens, UniProt P25090)
Construct: expressed in transfected cells
Test: compound-induced calcium activity on FLIPR Tetra in CHO-Gα16 cells stably expressing FPRL1
Assay type: cell-based
Conditions: relative efficacy
Measured Quantity: FPRL-1 Ga16-CHO (Rel. eff.)

[[record]]
item_smiles = "CCC[C@H](NC(=O)Nc1ccc(Br)cc1)C(=O)NCC(N)=O"
target_of_assay = "FPRL-1 (Homo sapiens, UniProt P25090)"
data_value = "(0.97)"

[[record]]
item_smiles = "CC[C@H](C)[C@H](NC(=O)Nc1ccc(Br)cc1)C(=O)NCC(C)=O"
target_of_assay = "FPRL-1 (Homo sapiens, UniProt P25090)"
data_value = "(0.97)"


====

Molecular target: FPRL-1 (Homo sapiens)
Sequence (P25090 1-351): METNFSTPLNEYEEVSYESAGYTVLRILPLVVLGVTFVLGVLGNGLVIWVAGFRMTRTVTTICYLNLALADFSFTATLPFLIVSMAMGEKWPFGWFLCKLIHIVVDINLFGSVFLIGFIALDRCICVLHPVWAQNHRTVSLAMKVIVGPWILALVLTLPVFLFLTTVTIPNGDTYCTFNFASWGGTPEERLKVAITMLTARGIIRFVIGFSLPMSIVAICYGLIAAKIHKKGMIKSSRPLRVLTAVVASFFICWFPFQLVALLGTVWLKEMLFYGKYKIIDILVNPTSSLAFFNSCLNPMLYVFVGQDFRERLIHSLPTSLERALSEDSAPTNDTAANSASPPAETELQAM
Assay: compound-induced calcium activity on FLIPR Tetra in CHO-Gα16 cells stably expressing FPRL1
Details: tested 0.61 to 10,000 nM, read-out: FPRL-1 Ga16-CHO EC50
Measured Quantity: EC50 (nM)

Sample answers from the record:
[[record]]
item_smiles = "CC[C@H](C)[C@H](NC(=O)Nc1ccc(Br)cc1F)C(=O)NCCO"
unit_symbol = "nM"
data_value = 62

[[record]]
item_smiles = "CC(C)C[C@H](NC(=O)Nc1ccc(Br)cc1)C(=O)NCC(=O)OC(C)(C)C"
unit_symbol = "nM"
data_value = 140

[[record]]
item_smiles = "CC(C)C[C@H](NC(=O)Nc1ccc(Br)cc1F)C(=O)N[C@@H](C)C(=O)OC(C)(C)C"
unit_symbol = "nM"
data_value = 174


P. CC[C@H](C)[C@H](NC(=O)Nc1ccc(Br)cc1F)C(=O)NCC(C)=O
Q. CC(=O)CNC(=O)[C@H](Cc1ccccc1)NC(=O)Nc1ccc(Br)cc1F
R. O=C(O)CCNC(=O)[C@H](Cc1ccccc1)NC(=O)Nc1ccc(Br)cc1
S. CC[C@@H](C)[C@@H](NC(=O)Nc1ccc(Br)cc1)C(=O)NCC(=O)OC(C)(C)C
T. CC(C)C[C@H](NC(=O)Nc1ccc(S(C)(=O)=O)cc1)C(=O)NCC(=O)O
## Input # desc sort on EC50 across 5 molecules Hello, could you send the labels back in the order asked? Thank you.
## Output S, T, P, R, Q

====

Molecular target: FPRL-1 (Homo sapiens, UniProt P25090)
Assay: compound-induced calcium activity on FLIPR Tetra in CHO-Gα16 cells stably expressing FPRL1
Conditions: tested 0.61 to 10,000 nM, read-out: FPRL-1 Ga16-CHO EC50
Measured Quantity: EC50 (nM)

[[record]]
molecule = "CC[C@H](C)[C@H](NC(=O)Nc1ccc(Br)cc1)C(=O)NCC(=O)O"
target_of_assay = "FPRL-1 (Homo sapiens, UniProt P25090)"
unit_symbol = "nM"
data_value = 2.7

[[record]]
molecule = "CC(C)C[C@H](NC(=O)Nc1ccc(Br)cc1)C(=O)NC(CO)CO"
target_of_assay = "FPRL-1 (Homo sapiens, UniProt P25090)"
unit_symbol = "nM"
data_value = 7.4

[[record]]
molecule = "CC(C)(C)OC(=O)CNC(=O)[C@H](Cc1ccccc1)NC(=O)Nc1ccc(Br)cc1"
target_of_assay = "FPRL-1 (Homo sapiens, UniProt P25090)"
unit_symbol = "nM"
data_value = 118

[[record]]
molecule = "CC(C)C[C@H](NC(=O)Nc1ccc(Br)cc1)C(=O)NCC(N)=O"
target_of_assay = "FPRL-1 (Homo sapiens, UniProt P25090)"
unit_symbol = "nM"
data_value = 1.05


1. CC[C@H](C)[C@H](NC(=O)Nc1ccc(Br)cc1)C(=O)NCC(N)=O
2. CCC[C@H](NC(=O)Nc1ccc(Br)cc1F)C(=O)NCCO
## Input Just curious, which one has the larger EC50 reading, 1 or 2 ? When you have decided, please share the label of that item.
## Output 2

1. CC(C)C[C@H](NC(=O)Nc1ccc(Br)cc1)C(=O)NCC(O)CO (stereo partly drawn)
2. CC(C)C[C@H](NC(=O)Nc1ccc(Br)cc1)C(=O)NC(C)(C)C(=O)O
3. CC[C@H](C)[C@H](NC(=O)Nc1ccc(Br)cc1F)C(=O)NCC(=O)OC(C)(C)C
## Input Ordering: ascending EC50. Hello, could you send the labels back in the order asked? Thank you.
## Output 2, 1, 3

====

Molecular target: UniProt:P25090
Experiment: compound-induced calcium activity on FLIPR Tetra in CHO-Gα16 cells stably expressing FPRL1
Conditions: tested 0.61 to 10,000 nM, read-out: FPRL-1 Ga16-CHO EC50
Measured Quantity: EC50 (µM)

I. CC(C)C[C@H](NC(=O)Nc1ccc(Br)cc1)C(=O)N[C@H](C)CO
II. CC(C)C[C@H](NC(=O)Nc1ccc(Br)cc1)C(=O)N[C@H](C(=O)O)C(C)C
III. CC(C)CC(C)(NC(=O)Nc1ccc(Br)cc1)C(=O)NCC(=O)OC(C)(C)C (stereo not drawn)
IV. CC[C@@H](C)[C@@H](NC(=O)Nc1ccc(Br)cc1)C(=O)NCC(=O)O
V. CC(=O)CNC(=O)[C@H](Cc1ccccc1)NC(=O)Nc1ccc(Br)cc1
## Input Sort the list above on EC50 in ascending fashion. Hello, could you send the labels back in the order asked? Thank you.
## Output II, I, V, III, IV

I. CCC[C@H](NC(=O)Nc1ccc(Br)cc1)C(=O)NCC(=O)O
II. CC(C)C[C@H](NC(=O)Nc1ccc(SC(F)(F)F)cc1)C(=O)NCC(=O)OC(C)(C)C
III. CC(C)C[C@H](NC(=O)Nc1ccc(Br)cc1)C(=O)N[C@H](C(=O)O)c1ccccc1
## Input Ordering: ascending EC50. Hello, could you send the labels back in the order asked? Thank you.
## Output I, III, II
(I: 0.0032 µM, III: 0.0091 µM, II: 3.1 µM)

a. O=C(O)CNC(=O)[C@H](Cc1ccccc1)NC(=O)Nc1ccc(Br)cc1
b. CCC(CC)(NC(=O)Nc1ccc(Br)cc1)C(=O)NCC(=O)O
c. CC(C)C[C@@H](NC(=O)Nc1ccc(Br)cc1)C(=O)NC(C)(C)C(=O)OC(C)(C)C
d. CC(C)(C)OC(=O)CNC(=O)C(Cc1c[nH]cn1)NC(=O)Nc1ccc(Br)cc1 (stereo not drawn)
e. CCC[C@H](NC(=O)Nc1ccc(Br)cc1)C(=O)NCC(=O)OCC
## Input Ordering: ascending EC50. Hello, could you send the labels back in the order asked? Thank you.
## Output a, b, e, d, c
